Hey, just so you know, these numbers are from the supplement of paper PMC10065799.

- TEST_TARGET: c-Src SH2;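 further: peptide library displayed on the E. coli surface as eCPX fusions, selected cells deep-sequenced, score is each peptide's frequency after selection divided by its frequency in the input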
- METHOD: SH2 binding enrichment of the phosphorylated peptide, bacterial display (enrichment ratio); higher = better substrate or ligand; peptides without Tyr show the background
READOUT_NAME: SH2 binding enrichment

The cases that follow already have their SH2 binding enrichment on record.
1) RHPLEYLRQYP [NARS2_Y138]
0.775
2) DVYVSYDYGKS [SORL1_Y139]
0.924
3) FFFDLYGGEKF [PTPN11_Y66_D61Y_YF]
0.631
4) FQHLRYIKQLG [SAMHD1_Y146_R143H]
0.496
5) LGGAMYFLEAD [PKHD1_Y452_E457D_YF]
0.667

P: HHIDYYKETTN [FGFR1_Y654_K656E]
Q: DPLLTHRFPPK [LMNA_Y481_Y481H]
Lab note: check whether P or Q shows the higher recorded SH2 binding enrichment. Reply briefly: the label of your chosen item.
P
(P: 1.47, Q: 0.458)

---

- Tested on: c-Abl (mouse)
- METHOD: phosphorylation enrichment, bacterial display (enrichment ratio); higher = better substrate or ligand; peptides without Tyr show the background
READOUT_NAME: phosphorylation enrichment
Please reply with the value in numeric form only.

The cases that follow already have their phosphorylation enrichment on record.
1) FCRHNYGVGES [HLA-DRB1_Y112_V115G_YF]
0.606
2) KHCEDYVCSFN [DSC1_Y846_YF]
0.719
3) CPPELYALMSD [ZAP70_Y569]
0.681
4) RLRAAYNLVKR [PFKM_Y103]
0.815

Kindly consider the entry below.
May I ask what phosphorylation enrichment has been recorded for GHLYAYDWISI [BEST1_Y227] ?
0.848

---

- TEST_TARGET: FGFR1 (UniProt P11362)
- Sequence (P11362 whole entry, looked up): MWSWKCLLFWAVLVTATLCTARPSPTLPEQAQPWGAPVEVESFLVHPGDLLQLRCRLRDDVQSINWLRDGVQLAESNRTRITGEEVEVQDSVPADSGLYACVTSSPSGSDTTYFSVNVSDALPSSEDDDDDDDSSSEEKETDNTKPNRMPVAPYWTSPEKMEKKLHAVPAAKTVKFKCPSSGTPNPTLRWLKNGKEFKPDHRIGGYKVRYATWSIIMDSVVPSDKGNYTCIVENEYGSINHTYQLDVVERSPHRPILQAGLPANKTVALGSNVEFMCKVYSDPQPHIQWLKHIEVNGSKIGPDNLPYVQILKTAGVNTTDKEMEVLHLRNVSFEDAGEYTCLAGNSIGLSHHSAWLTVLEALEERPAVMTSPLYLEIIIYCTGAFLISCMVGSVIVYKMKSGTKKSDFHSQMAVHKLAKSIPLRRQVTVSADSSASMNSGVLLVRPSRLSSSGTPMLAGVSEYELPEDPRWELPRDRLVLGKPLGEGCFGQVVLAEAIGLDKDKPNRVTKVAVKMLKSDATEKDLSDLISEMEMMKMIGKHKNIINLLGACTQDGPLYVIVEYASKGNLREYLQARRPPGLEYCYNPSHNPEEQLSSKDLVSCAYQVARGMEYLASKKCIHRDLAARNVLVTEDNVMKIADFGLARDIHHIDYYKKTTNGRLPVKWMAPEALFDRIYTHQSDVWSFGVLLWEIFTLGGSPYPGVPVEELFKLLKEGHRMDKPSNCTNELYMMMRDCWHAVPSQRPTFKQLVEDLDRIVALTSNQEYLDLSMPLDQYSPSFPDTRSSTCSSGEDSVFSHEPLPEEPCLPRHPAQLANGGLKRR
- METHOD: phosphorylation enrichment, bacterial display (enrichment ratio); higher = better substrate or ligand; peptides without Tyr show the background
The entries below are paired with their reported phosphorylation enrichment.
Please reply with the value in numeric form only.

The cases that follow already have their phosphorylation enrichment on record.
1. AARVSYRLASG [DCHS1_Y1582]
0.354
2. PSPMPYAFCQM [FOXL2_Y215_S217F]
2.61
3. PSGPAYRGAVP [ASAH1_Y43_T42A]
0.809

May I ask what phosphorylation enrichment has been recorded for SGGSSYGSGGC [KRT1_Y532_G537C] ?
0.589

Also HGEAYYSEVKP [PAK5_Y182] , if possible.
3.13

Also FLTQHYDAEPQ [ANG_Y38_K41E] , if possible.
0.583

---

- TEST_TARGET: FGFR3 (UniProt P22607)
- Sequence (P22607 whole entry, looked up): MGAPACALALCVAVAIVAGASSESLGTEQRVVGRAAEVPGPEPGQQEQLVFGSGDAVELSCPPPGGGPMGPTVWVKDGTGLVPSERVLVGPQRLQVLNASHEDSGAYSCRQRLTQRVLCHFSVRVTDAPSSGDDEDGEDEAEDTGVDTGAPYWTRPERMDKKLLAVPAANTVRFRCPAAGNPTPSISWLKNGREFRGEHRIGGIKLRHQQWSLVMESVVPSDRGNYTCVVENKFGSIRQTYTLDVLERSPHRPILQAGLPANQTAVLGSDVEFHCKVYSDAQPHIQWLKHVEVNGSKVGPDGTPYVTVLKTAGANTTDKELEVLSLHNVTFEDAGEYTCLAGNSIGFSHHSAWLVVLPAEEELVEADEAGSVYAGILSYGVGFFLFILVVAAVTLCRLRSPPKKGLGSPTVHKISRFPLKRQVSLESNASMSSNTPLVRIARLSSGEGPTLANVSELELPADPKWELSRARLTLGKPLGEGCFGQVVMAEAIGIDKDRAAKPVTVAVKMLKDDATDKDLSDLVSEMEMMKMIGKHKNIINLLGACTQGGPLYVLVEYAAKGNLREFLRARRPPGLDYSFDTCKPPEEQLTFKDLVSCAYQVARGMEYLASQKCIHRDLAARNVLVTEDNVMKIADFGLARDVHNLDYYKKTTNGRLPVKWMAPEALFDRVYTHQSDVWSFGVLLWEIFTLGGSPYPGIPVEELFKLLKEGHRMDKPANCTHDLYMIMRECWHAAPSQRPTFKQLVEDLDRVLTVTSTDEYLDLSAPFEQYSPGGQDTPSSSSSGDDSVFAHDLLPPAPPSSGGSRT
- METHOD: phosphorylation enrichment, bacterial display (enrichment ratio); higher = better substrate or ligand; peptides without Tyr show the background
READOUT_NAME: phosphorylation enrichment
Please reply with the value in numeric form only.

The cases that follow already have their phosphorylation enrichment on record.
1. RHSGSYFVTSV [APC_Y2838_L2839F]
0.565
2. LFMGDYVDRGY [PPP2CA_Y86]
1.02
3. KEAQVYQAFRL [SUCLG2_Y343_K347R]
0.581

Kindly consider the entry below.
May I ask what phosphorylation enrichment has been recorded for IFHLSYIHNCE [PDE6B_Y227_L228I_YF] ?
0.91

---

The entries below are paired with their reported phosphorylation enrichment.
- TEST_TARGET: Fes (UniProt P07332)
- Sequence (P07332 whole entry, looked up): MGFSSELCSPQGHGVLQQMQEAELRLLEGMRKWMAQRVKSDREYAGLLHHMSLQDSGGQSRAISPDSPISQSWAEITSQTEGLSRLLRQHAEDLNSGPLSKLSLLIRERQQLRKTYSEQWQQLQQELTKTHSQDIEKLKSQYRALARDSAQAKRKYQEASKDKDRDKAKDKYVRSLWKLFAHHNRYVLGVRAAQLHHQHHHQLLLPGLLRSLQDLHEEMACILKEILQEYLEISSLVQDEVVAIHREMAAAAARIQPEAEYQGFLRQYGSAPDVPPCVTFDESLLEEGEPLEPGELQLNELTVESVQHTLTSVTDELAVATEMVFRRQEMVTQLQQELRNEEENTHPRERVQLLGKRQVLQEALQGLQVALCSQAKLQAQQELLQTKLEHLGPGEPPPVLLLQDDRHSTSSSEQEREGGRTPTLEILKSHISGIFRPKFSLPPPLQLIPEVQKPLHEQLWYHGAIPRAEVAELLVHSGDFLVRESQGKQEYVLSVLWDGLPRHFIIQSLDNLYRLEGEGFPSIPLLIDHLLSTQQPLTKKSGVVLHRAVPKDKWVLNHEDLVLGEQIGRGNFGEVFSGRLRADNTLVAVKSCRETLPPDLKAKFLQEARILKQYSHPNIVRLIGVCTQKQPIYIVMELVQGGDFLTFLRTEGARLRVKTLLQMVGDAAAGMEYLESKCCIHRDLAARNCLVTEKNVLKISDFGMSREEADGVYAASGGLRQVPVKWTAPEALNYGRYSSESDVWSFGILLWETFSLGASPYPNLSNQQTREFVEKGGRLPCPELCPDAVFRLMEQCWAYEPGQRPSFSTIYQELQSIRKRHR
- METHOD: phosphorylation enrichment, bacterial display (enrichment ratio); higher = better substrate or ligand; peptides without Tyr show the background
Please reply with the value in numeric form only.

1. CWAVKYLQMVG [AVPR2_Y117_R113W]
1.39
2. TSIGNYYKPWF [DHCR24_Y299_N294T]
0.868
3. PTTKTYFPHFA [HBA1_Y43_D48A]
0.724
4. FGGRDYSLDEF [MYOF_Y1705_YF]
1.18
5. QRASDYFSQQM [GBP6_Y333_A331S_YF]
1.49
6. MRNDLYQTPLH [NFKB1_Y582]
0.845
7. DVRQEYPGMIL [PLXND1_Y616]
0.949
8. FTDPFYDFEIE [ZC3H18_Y372_A368T_YF]
1.54
9. SKKVRYVVSKA [BARD1_Y156]
0.569
10. PFQGAYLKINK [MYO1B_Y967_E969K]
1.52

Enter reported phosphorylation enrichment observed with Fes (UniProt P07332) for DAAEDYAEGVC [DHODH_Y194_R199C]
1.24

Also TLQSMYGCDLG [HLA-B_Y123_V127L] , if possible.
1.38

Also AKAEICEMRPL [COX10_Y97_Y97C] , if possible.
0.921

Also RVQQIYSDSDL [MIB1_Y376] , if possible.
1.32

Also KRLYAYKMLMA [TMC2_Y209_Q205R] , if possible.
0.869

Also HGEAYYSEVKP [PAK5_Y182] , if possible.
1.62

---

- TEST_TARGET: Fes (UniProt P07332)
- METHOD: phosphorylation enrichment, bacterial display (enrichment ratio); higher = better substrate or ligand; peptides without Tyr show the background
The entries below are paired with their reported phosphorylation enrichment.
Please reply with the value in numeric form only.

1. SFCFRYRCAAR [SUMF1_Y344_YF]
0.634
2. RLDGEYFTLQI [TP53_Y327_P322R]
1.54
3. VNYQPYRKHKY [TEX37_Y28_D24N]
0.498
4. TAIFIYIRPKA [OR10C1_Y258_L255I]
1.39
5. LANNEYFFQVC
2.72

May I ask what phosphorylation enrichment has been recorded for FSPPYYHRNCM [HGD_Y334_R330S] ?
0.957

---

- System: Fer (mouse)
- METHOD: phosphorylation enrichment, bacterial display (enrichment ratio); higher = better substrate or ligand; peptides without Tyr show the background
READOUT_NAME: phosphorylation enrichment
Please reply with the value in numeric form only.

1) YSIDYYRVGGH [NTRK2_Y707_T704I]
0.514
2) KSVEEYANCHL [TF_Y593_P589S]
0.466
3) HNLNYYKKTTN [FGFR3_Y648_D646N]
0.461

May I ask what phosphorylation enrichment has been recorded for EVEFEYPFRLH [SYP_Y73] ?
0.489

Also AKFPSYEKNKK [FOXL2_Y91_F90S] , if possible.
0.49

Also KGYRGYSYDDI [TMEM230_Y110] , if possible.
0.393

Also GKTQQYECKWF [BCR_Y751_D752E_YF] , if possible.
0.572

Also RRNEEYCLLDS [ITK_Y198] , if possible.
0.967

Also GVRLFYRVRES [RB1_Y454_M457R_YF] , if possible.
0.461

---

The entries below are paired with their reported phosphorylation enrichment.
- TEST_TARGET: MERTK (UniProt Q12866)
- METHOD: phosphorylation enrichment, bacterial display (enrichment ratio); higher = better substrate or ligand; peptides without Tyr show the background
Please reply with the value in numeric form only.

1. PGLRGYPGLSG [COL4A2_Y306]
0.599

Kindly consider the entry below.
May I ask what phosphorylation enrichment has been recorded for AKFPSYEKNKK [FOXL2_Y91_F90S] ?
0.499

---

The entries below are paired with their reported phosphorylation enrichment.
- System: c-Abl (mouse)
- METHOD: phosphorylation enrichment, bacterial display (enrichment ratio); higher = better substrate or ligand; peptides without Tyr show the background
Please reply with the value in numeric form only.

The cases that follow already have their phosphorylation enrichment on record.
1) VLVSQYEKLDA [AMZ2_Y26_N30D]
0.586
2) NRVEIYEKTVE [CYFIP1_Y108]
0.919

Kindly consider the entry below.
May I ask what phosphorylation enrichment has been recorded for LAIELYVVVCK [RHO_Y136_R135L] ?
2.59

---

- TEST_TARGET: Jak2 (UniProt O60674)
- Sequence (O60674 whole entry, looked up): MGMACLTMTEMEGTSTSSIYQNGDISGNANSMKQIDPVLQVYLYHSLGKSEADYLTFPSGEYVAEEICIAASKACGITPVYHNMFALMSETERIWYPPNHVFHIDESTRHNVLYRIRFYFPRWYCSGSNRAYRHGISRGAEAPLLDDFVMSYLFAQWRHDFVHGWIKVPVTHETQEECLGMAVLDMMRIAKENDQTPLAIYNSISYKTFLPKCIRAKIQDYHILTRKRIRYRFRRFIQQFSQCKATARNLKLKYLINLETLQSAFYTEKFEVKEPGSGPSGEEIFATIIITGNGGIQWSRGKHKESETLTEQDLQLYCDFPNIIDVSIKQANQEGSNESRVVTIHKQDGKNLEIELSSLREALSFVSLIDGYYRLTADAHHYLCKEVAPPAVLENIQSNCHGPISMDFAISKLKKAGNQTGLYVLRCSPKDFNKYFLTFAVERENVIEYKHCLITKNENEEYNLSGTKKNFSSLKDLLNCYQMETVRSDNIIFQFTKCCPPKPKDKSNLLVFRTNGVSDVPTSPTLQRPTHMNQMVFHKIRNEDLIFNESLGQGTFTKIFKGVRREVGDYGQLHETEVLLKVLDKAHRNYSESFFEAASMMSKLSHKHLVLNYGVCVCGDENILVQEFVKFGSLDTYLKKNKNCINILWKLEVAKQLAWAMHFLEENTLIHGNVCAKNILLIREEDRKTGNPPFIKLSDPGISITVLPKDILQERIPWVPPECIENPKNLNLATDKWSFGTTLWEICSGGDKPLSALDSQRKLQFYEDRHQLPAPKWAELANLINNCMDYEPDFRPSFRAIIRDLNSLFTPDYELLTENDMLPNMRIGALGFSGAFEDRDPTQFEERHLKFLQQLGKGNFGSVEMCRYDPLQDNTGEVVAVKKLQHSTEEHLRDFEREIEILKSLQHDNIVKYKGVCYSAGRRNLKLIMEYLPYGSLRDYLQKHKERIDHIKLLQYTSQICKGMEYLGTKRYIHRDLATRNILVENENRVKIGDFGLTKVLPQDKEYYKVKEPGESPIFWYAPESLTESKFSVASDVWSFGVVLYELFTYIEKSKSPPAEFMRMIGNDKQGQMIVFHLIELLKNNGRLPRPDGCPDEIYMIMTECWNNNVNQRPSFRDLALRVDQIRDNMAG
- METHOD: phosphorylation enrichment, bacterial display (enrichment ratio); higher = better substrate or ligand; peptides without Tyr show the background
READOUT_NAME: phosphorylation enrichment
Please reply with the value in numeric form only.

The cases that follow already have their phosphorylation enrichment on record.
1. DAVKHYMQFRK [CNGA2_Y395]
0.44
2. SRNSKYNAEST [PSEN1_Y315_K311R]
0.489
3. PEADKYHLTFA [FGG_Y300_R301H_YF]
1.98
4. RDLHTYIMPAH [PNMT_Y256_R254H]
0.957

Kindly consider the entry below.
May I ask what phosphorylation enrichment has been recorded for RQQQDYWLIDV [ANPEP_Y600] ?
2.43

---

The entries below are paired with their reported phosphorylation enrichment.
- TEST_TARGET: EPHB2 (UniProt P29323)
- Sequence (P29323 whole entry, looked up): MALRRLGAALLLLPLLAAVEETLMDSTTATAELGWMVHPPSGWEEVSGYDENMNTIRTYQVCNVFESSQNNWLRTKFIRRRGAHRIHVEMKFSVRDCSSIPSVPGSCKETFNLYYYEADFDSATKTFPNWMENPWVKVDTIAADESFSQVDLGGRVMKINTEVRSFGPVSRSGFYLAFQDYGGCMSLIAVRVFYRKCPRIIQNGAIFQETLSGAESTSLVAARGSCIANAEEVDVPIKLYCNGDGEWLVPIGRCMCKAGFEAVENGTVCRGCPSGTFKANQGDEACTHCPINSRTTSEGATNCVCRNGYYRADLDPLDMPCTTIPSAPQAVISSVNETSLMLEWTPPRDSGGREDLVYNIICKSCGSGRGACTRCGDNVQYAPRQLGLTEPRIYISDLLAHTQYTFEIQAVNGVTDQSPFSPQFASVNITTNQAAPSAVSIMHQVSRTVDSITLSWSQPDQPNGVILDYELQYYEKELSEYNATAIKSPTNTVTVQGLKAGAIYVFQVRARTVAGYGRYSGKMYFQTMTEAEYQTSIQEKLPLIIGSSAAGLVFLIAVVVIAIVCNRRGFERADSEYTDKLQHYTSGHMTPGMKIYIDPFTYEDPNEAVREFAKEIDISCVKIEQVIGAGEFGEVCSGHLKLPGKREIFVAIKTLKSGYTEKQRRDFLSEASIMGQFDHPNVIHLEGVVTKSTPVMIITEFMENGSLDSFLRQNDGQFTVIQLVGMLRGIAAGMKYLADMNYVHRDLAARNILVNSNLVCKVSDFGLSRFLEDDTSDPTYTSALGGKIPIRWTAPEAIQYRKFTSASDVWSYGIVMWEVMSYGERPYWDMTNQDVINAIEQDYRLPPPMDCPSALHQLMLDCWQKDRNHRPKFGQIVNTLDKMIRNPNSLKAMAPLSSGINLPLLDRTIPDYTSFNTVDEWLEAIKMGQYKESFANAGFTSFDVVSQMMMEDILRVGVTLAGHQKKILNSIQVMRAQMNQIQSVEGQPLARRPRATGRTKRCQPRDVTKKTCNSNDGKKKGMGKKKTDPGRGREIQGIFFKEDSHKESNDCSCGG
- METHOD: phosphorylation enrichment, bacterial display (enrichment ratio); higher = better substrate or ligand; peptides without Tyr show the background
Please reply with the value in numeric form only.

1. QTEAPYRFIFM [PTPN11_Y511_Q510P_YF]
0.626

May I ask what phosphorylation enrichment has been recorded for TWEKPYECVQC [ZNF24_Y335_G331W] ?
0.601

Also LVMFIYAISGM [SCN1A_Y1684_F1687S] , if possible.
0.927
